Each recorded value in this set is attributed to the supplement of paper PMC10567573.

B1: EFHC1 (parent)
chain: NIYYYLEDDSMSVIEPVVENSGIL

- Variants of: B1
- test details: protein stability index of a GFP-peptide fusion (GPS, HEK-293T) (PSI 1-6); higher = more stable;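 note: lentivirally expressed fusions sorted by FACS into six bins by GFP to DsRed ratio, PSI derived from sequencing read proportions per bin multiplied by bin number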
- measurement parameters: c terminus: a fixed tail appended
property name: protein stability index

1) P16Q; 2.17
2) Y5Q; 2.92
3) S10K; 2.18
4) I14V; 2.31
5) E15R; 1.32
6) N1P; 2.15
7) L6I; 2.23
8) V18Q; 2.38
9) L24N; 2.48
10) S21H; 2.09
11) S12P; 2.15
12) V18T; 2.23
13) S10I; 2.1
14) E7R; 2.52
15) E7G; 1.65
16) N20V; 2.71
17) M11R; 2.32
18) E15S; 1.7
19) I14K; 3.07
20) E15P; 2.38
21) N1Y; 1.81
22) L24Y; 2.31
